# Test system: HCT-15 colon
# Experiment: NCI-60 one-dose screen, 48 h (100 = growth as untreated, 0 = no growth, -100 = all killed)
# Conditions: 10 µM
# Procedure: Growth inhibition of the HCT-15 human tumor cell line is measured as a screen for anti-cancer activity. Cells are grown in 96 well plates and exposed to the test compound for 48 hours. Compounds are tested at a single concentration, which is 10^-5 M for most compounds. The reported endpoint is percent growth (GI% or GIPRCNT), where numbers from 0 - 100% represent growth inhibition, and numbers from -100% - 0 represent cell death. For example, a value of 40 represents 60% growth inhibition. […]
Compounds without any hit were thinned out: in the full panel of roughly 83,000, 20% have a hit. Calls of active or inactive are those of the source. Rule for the calls: active = growth percent below 10; inactive = the rest.
# growth per entry
Measured parameter: growth

Molecule | Observed
COc1cc2cc3c(nc2cc1OC)CCN3Cc1ccc(NC(=O)Nc2ccc(F)cc2F)cc1 | 78.8% (inactive)
CCOC(=O)C(CSC(c1ccccc1)(c1ccccc1)c1ccccc1)NC(=O)C(CSC(c1ccccc1)(c1ccccc1)c1ccccc1)NC(c1ccccc1)(c1ccccc1)c1ccccc1 (centres undefined) | 100% (inactive)
Cc1ccc(NC(=O)Nc2cccnc2)cc1NC(=O)Nc1cccnc1 | 84% (inactive)
O=C(CNC(=O)OCc1ccccc1)NCC(=O)Oc1ccc([N+](=O)[O-])cc1 | 105% (inactive)

* * *

# Test system: COLO 205 colon
# Experiment: NCI-60 one-dose screen, 48 h
# Conditions: 10 µM
This is part of a sample that, as a whole, favours compounds with a hit. Of some 83,000 tested, about 20% had one in any assay. Calls of active or inactive are those of the source. How the source made its calls: active means growth percent below 10; inactive means the rest.
Classes used: active, inactive

Compound | Category
Cc1cs/c(=N\NC(=O)c2cc(-c3cc4ccccc4o3)nn2-c2ccccc2)n1-c1ccccc1 | inactive
CC(=O)c1nc2ccccc2n1CCNC(N)=O | inactive
Cc1cccc(Cl)c1NC(=O)c1ccc2nc(NC(=O)NC3CCN(C)CC3)sc2c1 | inactive
COc1ccc(/C=C2/CN(C(=O)c3ccccc3F)C/C(=C\c3ccc(OC)cc3)C2=O)cc1 | inactive
COc1ccc(-c2nn(-c3cccc(NC(=O)Nc4ccc(Cl)c(C(F)(F)F)c4)c3)cc2-c2ccncc2)cc1Cl | active
COc1ccc(-c2cc(-c3ccc(N(C)C)cc3)c(C#N)c(N3CCCC3)n2)cc1 | inactive
Clc1ccccc1N=Cc1ccc2c(c1)OCO2 | inactive
CN(C)C=Nc1cc(Cl)ccc1Cl | inactive
Cc1ccc(C(=O)Nc2cccc(F)c2)cc1NC(=O)C1(c2ncnc3[nH]ccc23)CC1 | inactive
COc1ccc(-c2ccc(-c3ccc(C(=N)N)cn3)o2)cc1 | active
O=C(O)C(SC(C(=O)O)c1ccccc1)c1ccccc1 (configuration not stated) | inactive
CC(C)N(CCNc1nc(C(Cl)(Cl)Cl)nc2cc(Cl)ccc12)C(C)C | active
COc1cc(NC(=O)CSc2nc3ccccc3c(=O)n2CCc2ccccc2)cc(OC)c1OC | inactive
CCN(CC)CCNC(=O)c1ccc(NC(C)=O)cc1 | inactive
NC1=NC(=O)C(c2ccccc2)(c2ccccc2)S1 | inactive
COc1cc(-c2nc(-c3nnc(-c4ccc(F)c(Cl)c4)o3)c3ccccn23)cc(OC)c1OC | inactive
CCCCCCCCCCCCCCCCN(C(C)c1ccccc1)S(=O)(=O)c1ccc(OC)c(N)c1 (configuration not stated) | inactive
CCN(CC)CCC(=O)Nc1cccc2c1C(=O)c1c(c(O)c3ccccc3c1O)C2=O | inactive
Fc1cc(C(F)(F)F)ccc1-c1cncnc1NC1CCCCCC1 | inactive
S=c1[nH]ccn1-c1c(Cl)cccc1Cl | inactive
CC1(C)CCC(=NNC(N)=S)CC1 | inactive
O=C(CSSCC(=O)c1ccc(Cl)cc1)c1ccc(Cl)cc1 | inactive
CC[C@H]1CCC/C=C/[C@@H]2C[C@H](O)C[C@H]2[C@H](O)/C=C/C(=O)O1 | active
CCCCCCCC(C)NCCO (configuration not stated) | inactive
COc1cc(/C=C/C(=O)c2ccc(Cl)cc2)ccc1OS(=O)(=O)c1ccc(C)cc1 | inactive
CO/N=C(/C(=O)NC1C(=O)N2C(C(=O)O)=C(COC(N)=O)CSC12)c1ccco1 (configuration not stated) | inactive
COc1ccc2c(c1)N(CCO)C1=C(C(=O)OC1)C2c1ccccc1 (configuration not stated) | active
FC(F)(F)c1ccc(-c2cnc(Cl)nc2N2CCC3(CC2)OCCO3)cc1 | inactive
COC(=O)c1ccc(=O)oc1 | inactive
COc1ccccc1CNCCN1C(=O)c2ccc3c4c(ccc(c24)C1=O)C(=O)N(CCNCc1ccccc1OC)C3=O | active
CCCCC/C=C/C(=O)CCc1ccc(O)c(OC)c1 | inactive
COc1ccc(/C(=C2\O[C@@H]([C@H]3COC(C)(C)O3)[C@H]3OC(C)(C)O[C@@H]23)c2cc(OC)c(OC)c(OC)c2)cc1O | inactive

* * *

# Tested on: MDA-MB-435 melanoma
# Experiment: NCI-60 one-dose screen, 48 h
# Conditions: 10 µM
This is part of a sample that, as a whole, favours compounds with a hit. Of some 83,000 tested, about 20% had one in any assay. Active and inactive are the calls of the source. Rule for the calls: active = growth percent below 10; inactive = the rest.
Classes used: T for active, F for inactive

Compound | Category
FC(F)(F)c1ccc2nc(-c3nc(-c4ccccc4)n4ccccc34)[nH]c2c1 | F
c1ccc(C(NC2CC3CCC2C3)c2ccccc2)cc1 (stereo not given) | F
Cn1c([N+](=O)[O-])cnc1/C=C1\Oc2ccc(Cl)cc2C1=O | T
COc1cc(/C=C2\Oc3cc(OCC(=O)c4ccccc4)ccc3C2=O)cc(OC)c1OC | F
Oc1[nH]c2ccc(Cl)cc2c1/C=c1/ccc2c(c1)N=C(c1cccs1)N=2 | F
Fc1ccc(-c2nnc(-c3c(-c4ccc(F)cc4)nc4ccccn34)o2)cc1 | F
O=c1[nH]c2ccc(Cl)cc2c2ccccc12 | F
O=C(CSSCC(=O)c1ccc(Cl)cc1)c1ccc(Cl)cc1 | F
O=C1/C(=C\c2ccccc2)CN(C(=O)c2ccccc2)C/C1=C\c1ccccc1 | T
COc1ccc2c(c1)/C(=C\c1c[nH]c3ccc(OC)cc13)C(=O)N2 | T
CN1CC[C@@H](c2c(O)cc(O)c3c(=O)cc(-c4ccccc4Cl)oc23)[C@@H](O)C1 | T
COc1ccc2c(c1)O/C(=C\c1ncc([N+](=O)[O-])n1C)C2=O | T
O=C1ON=[N+](c2ccc(Cc3ccc([N+]4=NOC(=O)C4CN4CCOCC4)cc3)cc2)C1CN1CCOCC1 (stereo not given) | T
COc1ccc(-c2ccc3cc(C(=O)Nc4ccc(O)c(C(=O)/C=C/c5cc(OC)c(OC)c(OC)c5)c4)ccc3c2)cc1 | F
Cc1ccc(-c2n[nH]c(=O)c3noc(-c4ccc(C)cc4)c23)cc1 | T
COc1cc(-c2nc(-c3nnc(-c4ccccc4Cl)o3)c3ccccn23)cc(OC)c1OC | F
COc1ccc(C2CC(c3ccc(N(C)C)cc3)=NN2c2ccc(S(N)(=O)=O)cc2)cc1 (stereo not given) | F
CCOC(=O)CCC(NC(=O)c1ccc(N)cc1)C(=O)OCC (stereo not given) | F
COc1cc(/C=N/NC(=O)c2ccccc2Nc2cccc(C(F)(F)F)c2)cc(OC)c1OC | T
O=C(O)C(SC(C(=O)O)c1ccccc1)c1ccccc1 (stereo not given) | F
CCN1Cc2c(/C=C/c3ccccc3)nc3ccc(OC)cc3c2N(c2cccc(Cl)c2)C1 | F
Nc1nc(N)c(NC(=O)CNc2ccc(C(=O)O)cc2)c(N)n1 | F
COc1ccc(-c2nc3ccccn3c2-c2nnc(-c3cc(OC)c(OC)c(OC)c3)o2)cc1 | F
CSc1nc(=O)n(Cc2ccc(Cl)cc2)c(=O)[nH]1 | F
Oc1[nH]c2cc(Cl)ccc2c1/C=c1/ccc2c(c1)N=C(c1cc(F)cc(F)c1)N=2 | T
COc1ccc(-c2cc(/C=C3\C(=O)Nc4ccc(Cl)cc43)[nH]n2)cc1OC | F
COc1cc2cc3c(nc2cc1OC)CCN3Cc1ccc(NC(=O)c2ccc(Cl)c(C(F)(F)F)c2)cc1 | F
COc1cccc(C2C3=C(COC3=O)N(CCO)c3cc(OC)ccc32)c1 (stereo not given) | T
COc1cc(Cl)cc(-c2nn(-c3cccc(NC(=O)c4ccc(Cl)c(Cl)c4)c3)cc2-c2ccncc2)c1 | F
Cc1ccc(NC(=O)CSc2nc3ccccc3c(=O)n2CCc2ccccc2)c(C(=O)O)c1 | F
COc1cc(-c2nc(-c3nnc(-c4ccc(F)c(Cl)c4)o3)c3ccccn23)cc(OC)c1OC | F
COc1ccc(-c2cc(/C=C3\C(=O)Nc4ccc(OC)cc43)[nH]n2)cc1 | T
COc1ccc(-c2cc(-c3ccc(N(C)C)cc3)c(C#N)c(N3CCCC3)n2)cc1 | F
Cc1ccc(C(=O)N2C/C(=C/c3ccccc3)C(=O)/C(=C/c3ccccc3)C2)cc1 | T
CC(=O)N1N=C(c2ccc(Cl)cc2)CC1c1sc(Cl)nc1Cl (stereo not given) | F
O=C(Nc1ccncc1)C(=O)c1cn(S(=O)(=O)c2cc(Cl)cc(Cl)c2)c2ccccc12 | T
c1ccc(CNc2ncnc3scc(-c4cccs4)c23)nc1 | F
Nc1ccc2c(c1)C1(CCC2)NC(=O)NC1=O (stereo not given) | F
CN(C)CCNC(=O)c1cccn2c(=O)c3cc4ccccc4cc3nc12 | T
O=C(Nc1cccc(-n2cc(-c3ccncc3)c(-c3cc(O)cc(Cl)c3)n2)c1)c1ccc(N2CCOCC2)c(C(F)(F)F)c1 | F
